- system.under.test: T1, human NGF (his tag) (human, UniProt P01138 122-241, limits assumed)
- T1 construct: Captured on Ni-NTA sensors in the ForteBio Octet assay; also called hNGF; antigen; not shown: his tag
- procedure.text: BLI (ForteBio Octet), method of example 4
kon values for the binders below.
Just the number in M⁻¹ s⁻¹, nothing appended.

Solved entries (count: 2):
{"binder": "humanized antibody AB5C2 (antibody, V domains shown, Humanized from #56 by CDR transplantation) VH: QVQLQESGPGLVKPSETLSLTCTVSGFSLTGYGVNWVRQPPGKGLEWLGMIWADGDTDYNSALKSRVTISKDTSKNQFSLKLSSVTAADTARYYCARDSYYYGYNFFDVWGAGTTVTVSS VL: DIQMTQSPSSLSASVGDRVTITCRASQDISNYLNWYQQKPGKAPKLLIYYTSRLHSGVPSRFSGSGSGTDFTFTISSLQPEDIATYFCQQGNTLPRTFGGGTKVEIK", "data.value": "1.66e+06"}
{"binder": "humanized antibody AB5D2 (antibody, V domains shown, Humanized from #2 by CDR transplantation) VH: QVQLVQSGAEVKKPGASVKVSCKASGYTFTDYWMQWVKQRPGQGLEWIGTIYPGDGYTRYIQKFKGRVTMTRDTSTSTVYMELSSLRSEDSAVYYCARRAAYYTMDYWGQGTLVTVSS VL: DIQMTQSPSSLSASVGDRVTITCKASQDVNTAVAWYQQKPGKAPKLLIYWASTRHTGVPDRFTGSGSGTDYTLTISSLQPEDLALYYCQQHYSSPWTFGGGTKVEIT", "data.value": "1.25e+06"}

# next binder below
Output measured kon for this item: humanized antibody AB5C5 (antibody, V domains shown, Humanized from #56 by CDR transplantation) VH: QVQLQESGPGLVKPSETLSLTCTVSGFSLTGYGWGWVRQPPGKGLEWLGSIWADGDTYYNPSLKSRVTISVDTSKNQFSLKLSSVTAADTAVYYCARDSYYYGYNFFDVWGQGTMVTVSS VL: DIQMTQSPSSLSASVGDRVTITCQASQDISNYLNWYQQKPGKAPKLLIYYTSNLESGVPSRFSGSGSGTDFTFTISSLQPEDIATYFCQQGNTLPRTFGGGTKVEIK
1.78e+06
